experiment: The compound was tested for inhibitory activity against KDO 8-P synthase by using a KDO 8-P synthase enzymatic assay
# IC50 listing for each entry below
reported endpoint: IC50 (mM)

{"molecule": "O=C(O)C1=C[C@H](OCC(O)P(=O)(O)O)[C@H](O)[C@H](O)C1 (stereo partly drawn)", "reported endpoint": "IC50", "reported relation": "=", "assay value": 3.8}
{"molecule": "O=C(O)C1=C[C@H](OCCP(=O)(O)O)[C@H](O)[C@H](O)C1", "reported endpoint": "IC50", "reported relation": ">", "assay value": 25}
{"molecule": "O=P(O)(O)OC[C@H]1O[C@H](O)[C@H](O)[C@@H]1O", "reported endpoint": "IC50", "reported relation": "=", "assay value": 4.3}
